Quick reference for ED50 among some compounds
test system: Staph. aureus Smith; experiment: In vivo activity (oral, iv; ED50) against Staph. aureus Smith in mice; conditions: iv, read-out: ED50 Staph Smith SIV

>  <STRUCTURE NOTATION>
CN(C)c1cc(NC(=O)CN(C(=O)OCOC(=O)c2ccc(C(F)(F)F)cc2)C(C)(C)C)c(O)c2c1C[C@H]1C[C@H]3[C@H](N(C)C)C(O)=C(C(N)=O)C(=O)[C@@]3(O)C(O)=C1C2=O

>  <ED50>
1.81 mg/kg

$$$$
>  <STRUCTURE NOTATION>
CN(C)c1cc(NC(=O)CN(C(=O)OCOC(=O)C(c2ccccc2)c2ccccc2)C(C)(C)C)c(O)c2c1C[C@H]1C[C@H]3[C@H](N(C)C)C(O)=C(C(N)=O)C(=O)[C@@]3(O)C(O)=C1C2=O

>  <ED50>
1.08 mg/kg

$$$$

* * *

system: S. aureus GC 6467; experiment: MIC, broth microdilution; settings: Staphylococcus aureus, GC6467, S. aureus GC 6467; Water pre-incubation
REPORTED ENDPOINT: MIC (µg/mL)

>  <STRUCTURE NOTATION>
CCCCN(CC(=O)Nc1cc(N(C)C)c2c(c1O)C(=O)C1=C(O)[C@]3(O)C(=O)C(C(N)=O)=C(O)[C@@H](N(C)C)[C@@H]3C[C@@H]1C2)C(=O)OCOC(=O)C(C)(C)C

>  <REPORTED ENDPOINT>
MIC

>  <NUMBER>
8

$$$$
>  <STRUCTURE NOTATION>
CCCN(CC(=O)Nc1cc(N(C)C)c2c(c1O)C(=O)C1=C(O)[C@]3(O)C(=O)C(C(N)=O)=C(O)[C@@H](N(C)C)[C@@H]3C[C@@H]1C2)C(=O)OCOC(=O)c1ccc(F)cc1

>  <REPORTED ENDPOINT>
MIC

>  <NUMBER>
8

$$$$
>  <STRUCTURE NOTATION>
CCCN(CC(=O)Nc1cc(N(C)C)c2c(c1O)C(=O)C1=C(O)[C@]3(O)C(=O)C(C(N)=O)=C(O)[C@@H](N(C)C)[C@@H]3C[C@@H]1C2)C(=O)OCC(C)C

>  <REPORTED ENDPOINT>
MIC

>  <NUMBER>
8

$$$$
>  <STRUCTURE NOTATION>
CCCN(CC(=O)Nc1cc(N(C)C)c2c(c1O)C(=O)C1=C(O)[C@]3(O)C(=O)C(C(N)=O)=C(O)[C@@H](N(C)C)[C@@H]3C[C@@H]1C2)C(=O)OCOC(=O)c1ccc(OC)cc1

>  <REPORTED ENDPOINT>
MIC

>  <NUMBER>
4

$$$$

* * *

system: Staph. aureus Smith; test: In vivo activity (oral, iv; ED50) against Staph. aureus Smith in mice; conditions: Staphylococcus aureus, in Mus musculus, po, read-out: ED50 Staph Smith SOD
REPORTED ENDPOINT: ED50 (mg/kg)

>  <MOLECULE>
CCCCN(CC(=O)Nc1cc(N(C)C)c2c(c1O)C(=O)C1=C(O)[C@]3(O)C(=O)C(C(N)=O)=C(O)[C@@H](N(C)C)[C@@H]3C[C@@H]1C2)C(=O)OCOC(=O)c1ccc(F)cc1

>  <MODIFIER SIGN>
=

>  <NUMBER>
11.6

$$$$
>  <MOLECULE>
CCCN(CC(=O)Nc1cc(N(C)C)c2c(c1O)C(=O)C1=C(O)[C@]3(O)C(=O)C(C(N)=O)=C(O)[C@@H](N(C)C)[C@@H]3C[C@@H]1C2)C(=O)OCOC(=O)C(C)C

>  <MODIFIER SIGN>
=

>  <NUMBER>
13.6

$$$$
>  <MOLECULE>
CN(C)c1cc(NC(=O)CN(C(=O)OCOC(=O)C(c2ccccc2)c2ccccc2)C(C)(C)C)c(O)c2c1C[C@H]1C[C@H]3[C@H](N(C)C)C(O)=C(C(N)=O)C(=O)[C@@]3(O)C(O)=C1C2=O

>  <MODIFIER SIGN>
>

>  <NUMBER>
32

$$$$
>  <MOLECULE>
CCCCN(CC(=O)Nc1cc(N(C)C)c2c(c1O)C(=O)C1=C(O)[C@]3(O)C(=O)C(C(N)=O)=C(O)[C@@H](N(C)C)C3CC1C2)C(=O)OCc1oc(=O)oc1-c1ccc(OC)cc1 (some centres unmarked)

>  <MODIFIER SIGN>
=

>  <NUMBER>
7.01

$$$$
>  <MOLECULE>
CCCCN(CC(=O)Nc1cc(N(C)C)c2c(c1O)C(=O)C1=C(O)[C@]3(O)C(=O)C(C(N)=O)=C(O)[C@@H](N(C)C)C3CC1C2)C(=O)OCOC(=O)c1ccc(OC)cc1 (some centres unmarked)

>  <MODIFIER SIGN>
=

>  <NUMBER>
13.3

$$$$
>  <MOLECULE>
CCCCN(CC(=O)Nc1cc(N(C)C)c2c(c1O)C(=O)C1=C(O)[C@]3(O)C(=O)C(C(N)=O)=C(O)[C@@H](N(C)C)[C@@H]3C[C@@H]1C2)C(=O)OCOC(=O)c1ccsc1

>  <MODIFIER SIGN>
=

>  <NUMBER>
13.7

$$$$
>  <MOLECULE>
CN(C)c1cc(NC(=O)CN(C(=O)OCOC(=O)C23CC4CC(CC(C4)C2)C3)C(C)(C)C)c(O)c2c1C[C@H]1C[C@H]3[C@H](N(C)C)C(O)=C(C(N)=O)C(=O)[C@@]3(O)C(O)=C1C2=O

>  <MODIFIER SIGN>
=

>  <NUMBER>
6.36

$$$$

* * *

test system: Staph.; assay: Range of MIC for Staph. strains, including MRSA; conditions: Staphylococcus aureus, MRSA, read-out: Range of MIC, Staph (Mouse Serum)
Quick reference for MIC among some compounds
REPORTED ENDPOINT: MIC

>  <STRUCTURE NOTATION>
CCCCN(CC(=O)Nc1cc(N(C)C)c2c(c1O)C(=O)C1=C(O)[C@]3(O)C(=O)C(C(N)=O)=C(O)[C@@H](N(C)C)[C@@H]3C[C@@H]1C2)C(=O)OCOC(=O)c1ccco1

>  <ASSAYED SYSTEM>
Staph.

>  <RESULT>
0.25 to 2 µg/mL

$$$$
>  <STRUCTURE NOTATION>
CCCN(CC(=O)Nc1cc(N(C)C)c2c(c1O)C(=O)C1=C(O)[C@]3(O)C(=O)C(C(N)=O)=C(O)[C@@H](N(C)C)[C@@H]3C[C@@H]1C2)C(=O)OCOC(=O)c1ccc(C(C)(C)C)cc1

>  <ASSAYED SYSTEM>
Staph.

>  <RESULT>
0.5 to 4 µg/mL

$$$$
>  <STRUCTURE NOTATION>
CN(C)c1cc(NC(=O)CN(C(=O)OCOC(=O)c2ccc3ccccc3n2)C(C)(C)C)c(O)c2c1C[C@H]1C[C@H]3[C@H](N(C)C)C(O)=C(C(N)=O)C(=O)[C@@]3(O)C(O)=C1C2=O

>  <ASSAYED SYSTEM>
Staph.

>  <RESULT>
0.5 to 2 µg/mL

$$$$
>  <STRUCTURE NOTATION>
CN(C)c1cc(NC(=O)CN(C(=O)OCOC(=O)c2c(F)cccc2F)C(C)(C)C)c(O)c2c1C[C@H]1C[C@H]3[C@H](N(C)C)C(O)=C(C(N)=O)C(=O)[C@@]3(O)C(O)=C1C2=O

>  <ASSAYED SYSTEM>
Staph.

>  <RESULT>
0.25 to 2 µg/mL

$$$$
>  <STRUCTURE NOTATION>
CCCCN(CC(=O)Nc1cc(N(C)C)c2c(c1O)C(=O)C1=C(O)[C@]3(O)C(=O)C(C(N)=O)=C(O)[C@@H](N(C)C)[C@@H]3C[C@@H]1C2)C(=O)OCOC(=O)C(C)(C)C

>  <ASSAYED SYSTEM>
Staph.

>  <RESULT>
1 to 4 µg/mL

$$$$
>  <STRUCTURE NOTATION>
CCCCN(CC(=O)Nc1cc(N(C)C)c2c(c1O)C(=O)C1=C(O)[C@]3(O)C(=O)C(C(N)=O)=C(O)[C@@H](N(C)C)[C@@H]3C[C@@H]1C2)C(=O)OCOC(=O)C12CC3CC(CC(C3)C1)C2

>  <ASSAYED SYSTEM>
Staph.

>  <RESULT>
1 to 4 µg/mL

$$$$
>  <STRUCTURE NOTATION>
CN(C)c1cc(NC(=O)CN(C(=O)OCOC(=O)Cc2ccccc2)C(C)(C)C)c(O)c2c1C[C@H]1C[C@H]3[C@H](N(C)C)C(O)=C(C(N)=O)C(=O)[C@@]3(O)C(O)=C1C2=O

>  <ASSAYED SYSTEM>
Staph.

>  <RESULT>
0.12 to 0.25 µg/mL

$$$$
>  <STRUCTURE NOTATION>
CN(C)c1cc(NC(=O)CN(C(=O)OCOC(=O)c2cccn2C)C(C)(C)C)c(O)c2c1C[C@H]1C[C@H]3[C@H](N(C)C)C(O)=C(C(N)=O)C(=O)[C@@]3(O)C(O)=C1C2=O

>  <ASSAYED SYSTEM>
Staph.

>  <RESULT>
1 to 4 µg/mL

$$$$
>  <STRUCTURE NOTATION>
CN(C)c1cc(NC(=O)CN(C(=O)OCOC(=O)c2cc3ccccc3o2)C(C)(C)C)c(O)c2c1C[C@H]1C[C@H]3[C@H](N(C)C)C(O)=C(C(N)=O)C(=O)[C@@]3(O)C(O)=C1C2=O

>  <ASSAYED SYSTEM>
Staph.

>  <RESULT>
0.12 to 0.25 µg/mL

$$$$
